Settings: 343.15 K; 15000 kPa; Liquid; Vibrating wire viscometry
± gives the expanded uncertainty stated by the source.
assay readout: viscosity
Please state the value followed by its unit.

Sample records with viscosity:
CCCOC(=O)CCCCC(=O)OCCC [dipropyl hexanedioate] : 1.928 ± 0.044 mPa·s
CCOC(=O)CCCCC(=O)OCC [diethyl hexanedioate] : 1.555 ± 0.033 mPa·s
CCCCOC(=O)CCCCC(=O)OCCCC [dibutyl hexanedioate] : 2.257 ± 0.048 mPa·s

Field: next compound
Ask: Any idea what viscosity was measured for COC(=O)CCCCC(=O)OC [dimethyl 1,6-hexanedioate] ?
Result: 1.457 ± 0.031 mPa·s

====

Conditions: 343.15 K; 40000 kPa; Liquid; Vibrating wire viscometry
// reported viscosity per item
Response body: numeric value in mPa·s, unit text excluded.

Sample records with viscosity:
CCCOC(=O)CCCCC(=O)OCCC [dipropyl hexanedioate] : 2.42
CCOC(=O)CCCCC(=O)OCC [diethyl hexanedioate] : 1.917
CCCCOC(=O)CCCCC(=O)OCCCC [dibutyl hexanedioate] : 2.859

Ask: Any idea what viscosity was measured for COC(=O)CCCCC(=O)OC [dimethyl 1,6-hexanedioate] ?
Result: 1.752

====

// reported viscosity per item
Details: 363.15 K; 100 kPa; Liquid; Vibrating wire viscometry
Response body: numeric value in mPa·s, unit text excluded.

Ask: Any idea what viscosity was measured for CCOC(=O)CCCCC(=O)OCC [diethyl hexanedioate] ?
Result: 1.032

Ask: Any idea what viscosity was measured for CCCOC(=O)CCCCC(=O)OCCC [dipropyl hexanedioate] ?
Result: 1.242

Ask: Any idea what viscosity was measured for COC(=O)CCCCC(=O)OC [dimethyl 1,6-hexanedioate] ?
Result: 0.9897

Ask: Any idea what viscosity was measured for CCCCOC(=O)CCCCC(=O)OCCCC [dibutyl hexanedioate] ?
Result: 1.437

====

Details: 293.15 K; 20000 kPa; Liquid; Vibrating wire viscometry
± gives the expanded uncertainty stated by the source.
// reported viscosity per item

Sample records with viscosity:
CCCCOC(=O)CCCCC(=O)OCCCC [dibutyl hexanedioate] : 6.982 ± 0.15 mPa·s
CCCOC(=O)CCCCC(=O)OCCC [dipropyl hexanedioate] : 5.773 ± 0.13 mPa·s
COC(=O)CCCCC(=O)OC [dimethyl 1,6-hexanedioate] : 3.958 ± 0.084 mPa·s

Field: next compound
Ask: Any idea what viscosity was measured for CCOC(=O)CCCCC(=O)OCC [diethyl hexanedioate] ?
Result: 4.278 ± 0.09 mPa·s

====

Details: 343.15 K; 100 kPa; Liquid; Vibrating wire viscometry
// reported viscosity per item
Response body: numeric value in mPa·s, unit text excluded.

Sample records with viscosity:
CCCCOC(=O)CCCCC(=O)OCCCC [dibutyl hexanedioate] : 1.93
CCCOC(=O)CCCCC(=O)OCCC [dipropyl hexanedioate] : 1.658
COC(=O)CCCCC(=O)OC [dimethyl 1,6-hexanedioate] : 1.293

Field: next compound
Ask: Any idea what viscosity was measured for CCOC(=O)CCCCC(=O)OCC [diethyl hexanedioate] ?
Result: 1.354

====

Conditions: 333.15 K; 5000 kPa; Liquid; Vibrating wire viscometry
Numbers after ± are expanded uncertainties.
assay readout: viscosity
Please state the value followed by its unit.

CCCCOC(=O)CCCCC(=O)OCCCC [dibutyl hexanedioate] : 2.407 ± 0.051 mPa·s
COC(=O)CCCCC(=O)OC [dimethyl 1,6-hexanedioate] : 1.565 ± 0.034 mPa·s
CCCOC(=O)CCCCC(=O)OCCC [dipropyl hexanedioate] : 2.058 ± 0.047 mPa·s

Field: next compound
Ask: Any idea what viscosity was measured for CCOC(=O)CCCCC(=O)OCC [diethyl hexanedioate] ?
Result: 1.653 ± 0.035 mPa·s

====

Conditions: 293.15 K; 10000 kPa; Liquid; Vibrating wire viscometry
assay readout: viscosity (mPa·s)
Response body: numeric value in mPa·s, unit text excluded.

CCCCOC(=O)CCCCC(=O)OCCCC [dibutyl hexanedioate] : 6.196

Ask: Any idea what viscosity was measured for CCOC(=O)CCCCC(=O)OCC [diethyl hexanedioate] ?
Result: 3.868

Ask: Any idea what viscosity was measured for CCCOC(=O)CCCCC(=O)OCCC [dipropyl hexanedioate] ?
Result: 5.155

Ask: Any idea what viscosity was measured for COC(=O)CCCCC(=O)OC [dimethyl 1,6-hexanedioate] ?
Result: 3.623

====

Details: 353.15 K; 40000 kPa; Liquid; Vibrating wire viscometry
assay readout: viscosity (mPa·s)
Response body: numeric value in mPa·s, unit text excluded.

CCCOC(=O)CCCCC(=O)OCCC [dipropyl hexanedioate] : 2.074
CCOC(=O)CCCCC(=O)OCC [diethyl hexanedioate] : 1.662
CCCCOC(=O)CCCCC(=O)OCCCC [dibutyl hexanedioate] : 2.438

Ask: Any idea what viscosity was measured for COC(=O)CCCCC(=O)OC [dimethyl 1,6-hexanedioate] ?
Result: 1.52

====

Details: 333.15 K; 30000 kPa; Liquid; Vibrating wire viscometry
assay readout: viscosity (mPa·s)
Response body: numeric value in mPa·s, unit text excluded.

Sample records with viscosity:
COC(=O)CCCCC(=O)OC [dimethyl 1,6-hexanedioate] : 1.903
CCCCOC(=O)CCCCC(=O)OCCCC [dibutyl hexanedioate] : 3.106
CCCOC(=O)CCCCC(=O)OCCC [dipropyl hexanedioate] : 2.624

Field: next compound
Ask: Any idea what viscosity was measured for CCOC(=O)CCCCC(=O)OCC [diethyl hexanedioate] ?
Result: 2.066

====

Conditions: 343.15 K; 10000 kPa; Liquid; Vibrating wire viscometry
assay readout: viscosity (mPa·s)
Response body: numeric value in mPa·s, unit text excluded.

Sample records with viscosity:
CCOC(=O)CCCCC(=O)OCC [diethyl hexanedioate] : 1.487
CCCCOC(=O)CCCCC(=O)OCCCC [dibutyl hexanedioate] : 2.144
CCCOC(=O)CCCCC(=O)OCCC [dipropyl hexanedioate] : 1.835

Field: next molecule
Ask: Any idea what viscosity was measured for COC(=O)CCCCC(=O)OC [dimethyl 1,6-hexanedioate] ?
Result: 1.401

====

Settings: 313.15 K; 100 kPa; Liquid; Vibrating wire viscometry
// reported viscosity per item
Response body: numeric value in mPa·s, unit text excluded.

Sample records with viscosity:
CCOC(=O)CCCCC(=O)OCC [diethyl hexanedioate] : 2.252
COC(=O)CCCCC(=O)OC [dimethyl 1,6-hexanedioate] : 2.129
CCCOC(=O)CCCCC(=O)OCCC [dipropyl hexanedioate] : 2.854

Ask: Any idea what viscosity was measured for CCCCOC(=O)CCCCC(=O)OCCCC [dibutyl hexanedioate] ?
Result: 3.375

====

Conditions: 313.15 K; 5000 kPa; Liquid; Vibrating wire viscometry
assay readout: viscosity (mPa·s)
Response body: numeric value in mPa·s, unit text excluded.

COC(=O)CCCCC(=O)OC [dimethyl 1,6-hexanedioate] : 2.227
CCOC(=O)CCCCC(=O)OCC [diethyl hexanedioate] : 2.362
CCCCOC(=O)CCCCC(=O)OCCCC [dibutyl hexanedioate] : 3.566

Field: next molecule
Ask: Any idea what viscosity was measured for CCCOC(=O)CCCCC(=O)OCCC [dipropyl hexanedioate] ?
Result: 3.014
